Source listed as patent US11446270B2.

experiment: Hygroscopicity, dynamic vapor sorption (DVS), 0-95% RH; type: physicochemical; conditions: 60% RH
EXPERIMENTAL_READOUT: hygroscopicity, water absorption

// known answers, use as guide
| MOLECULE | hygroscopicity, water absorption |
| --- | --- |
| COc1cc(C(=O)OCCCCNC(=N)N)cc(OC)c1O [crystal form F] | 60% RH, water absorption 0.14% |
| COc1cc(C(=O)OCCCCNC(=N)N)cc(OC)c1O [crystal form C] | 60% RH, water absorption 0.56% |
| COc1cc(C(=O)OCCCCNC(=N)N)cc(OC)c1O [crystal form A] | 60% RH, water absorption 0.07% |
| COc1cc(C(=O)OCCCCNC(=N)N)cc(OC)c1O [crystal form D] | 60% RH, water absorption 1.63% |
| COc1cc(C(=O)OCCCCNC(=N)N)cc(OC)c1O [crystal form B] | 60% RH, water absorption 0.14% |

q: Which hygroscopicity, water absorption reading was recorded for the molecule COc1cc(C(=O)OCCCCNC(=N)N)cc(OC)c1O [crystal form E] ?
a: 60% RH, water absorption 0.07%
